Where do these numbers come from? They come from patent US8889878B2.

System: armyworm (Spodoptera frugiperda)
assay: Spodoptera frugiperda test (SPODFR spray treatment), Example 15
Type: in vivo
condition.description: application rate 100 g/ha, maize leaf discs sprayed, after 7 days
// reported efficacy in % for each item listed

Worked examples follow.
| compound | efficacy in % |
| --- | --- |
| O=C(/C=C/c1ccc(C(=O)NCC(F)F)c(Cl)c1)NC(c1cccc(C(F)(F)F)c1)C(F)(F)F (stereo not drawn) | 100% |
| O=C(/C=C/c1ccc(C(=O)Nc2cnc(Br)cn2)c(C(F)(F)F)c1)NC(c1cccc(C(F)(F)F)c1)C(F)(F)F (stereo not drawn) | 100% |
| O=C(/C=C/c1ccc(C(=O)Nc2ncccn2)c(C(F)(F)F)c1)NC(c1cccc(C(F)(F)F)c1)C(F)(F)F (stereo not drawn) | 100% |

Attention now shifts to the item below.
Kindly note the recorded efficacy in % for C#CC(C)(C)NC(=O)c1ccc(/C=C/C(=O)NC(c2cccc(C(F)(F)F)c2)C(F)(F)F)cc1Cl (racemic) , which is 83%
